- Test system: LOX IMVI melanoma
- Method: NCI-60 one-dose screen, 48 h (100 = growth as untreated, 0 = no growth, -100 = all killed)
- Condition label: 10 µM
Compounds without any hit were thinned out: in the full panel of roughly 83,000, 20% have a hit.
Recorded growth determines the group label, using lo (below 20%), med (20% to below 80%), hi (80% or more)

Ask: Please classify: O=C(Nc1ccc(OCc2nnc(-c3ccc(Cl)cc3)o2)c(F)c1)Nc1ccc(Cl)c(C(F)(F)F)c1
Result: lo

Ask: Which band does O=C(Cn1cc(CO)nn1)Nc1nc2ccccc2s1 fall in?
Result: hi

====

- Test system: NCI-H226 lung
- Method: NCI-60 one-dose screen, 48 h (100 = growth as untreated, 0 = no growth, -100 = all killed)
- Condition label: 10 µM
About 83,000 compounds went through this panel and 20% of them were active in at least one assay; those are over-represented in the sample as a whole.
Hi! Just check whether growth is below 80%. Below gives YES, equal or above gives NO.

Molecule | Category label
C=CCn1c(SCC(=O)Nc2ccc(C(=O)/C=C/c3ccc(OC)cc3)cc2)nnc1-c1ccc(OC)c(OC)c1 | NO
O=C(CSc1nccc(Nc2cccc3ccccc23)n1)c1ccc(Cl)cc1 | NO
COc1ccc(/C(=N\N)C(=O)c2ccccc2)cc1 (tested in a mixture with another compound) | NO
C[n+]1c2ccccc2nc2ccccc21 | YES
CNC(=O)c1cn(C2CC2)c2cc(N3CCN(C(=O)c4cc(OC)c(OC)c(OC)c4)CC3)c(F)cc2c1=O | NO
N#Cc1c(-c2ccc(Cl)cc2)csc1NC(=O)Nc1ccc(Cl)c(C(F)(F)F)c1 | YES
CC(=O)OC/C=C(/C)C[P+](c1ccccc1)(c1ccccc1)c1ccccc1 | YES
CCOc1ccccc1/C=N\N=C\c1ccccc1O | NO
C=C/C(C)=C/C[C@]1(C)[C@H](C)[C@@H](OC(=O)CCC)[C@H](O)[C@@]23C(=C[C@H](OC)C[C@@H]12)[C@@H](OC(=O)CCC)O[C@H]3OC(C)=O | YES
COc1cc(-c2nn(-c3cccc(NC(=O)CCN4CCN(c5ccccc5)CC4)c3)cc2-c2ccncc2)ccc1Cl | YES

Ask: API: query returns whether the molecule falls strictly under 80% in growth. Query: COc1cc(-c2nn(-c3cccc(NC(=O)CCN4CCN(Cc5ccccc5)CC4)c3)cc2-c2ccncc2)ccc1Cl
Result: YES

Ask: Below 80% on growth? Entry COc1ccc(-c2nnc(SCC(=O)Nc3ccc(C(=O)/C=C/c4ccccc4)cc3)n2-c2ccccc2)cc1OC
Result: YES

Ask: Quick check: growth of Cc1c(Cl)cccc1NC(=O)CN1CCOCC1 under 80%?
Result: NO

Ask: Could you please tell me whether growth recorded for O=C1Cc2cc(CCN3CCN(c4nsc5ccccc45)CC3)c(Cl)cc2N1 is less than 80%?
Result: NO

Ask: Dear reviewer, please state whether CC(CN(C)C)Oc1ccc(OC(C)CN(C)C)c2c1C(=O)c1ccccc1C2=O (stereo not drawn) has growth strictly beneath 80%.
Result: YES

Ask: Given the entry COc1cc(-c2nn(-c3cccc(NC(=O)CCNc4ccc(N5CCOCC5)cc4)c3)cc2-c2ccncc2)ccc1Cl , would its reported growth be below 80%?
Result: YES

Ask: Hi there! Is growth for Nc1nc(Cl)nc2c1ncn2C1O[C@H](CO)[C@@H](O)[C@@H]1F (stereo partly drawn) below 80%, do you know?
Result: YES

Ask: Bench note: check whether N#Cc1c(-c2ccc(Cl)cc2)cc(-c2cc(O)ccc2O)nc1N shows growth below 80%
Result: NO

====

- Tested on: MCF7 breast
- Method: NCI-60 one-dose screen, 48 h
- Condition label: 10 µM
This is part of a sample that, as a whole, favours compounds with a hit. Of some 83,000 tested, about 20% had one in any assay. Active and inactive are the calls of the source. Rule for the calls: active = growth percent below 10; inactive = the rest.
Parameter call: string, one of T for active, F for inactive

Compound | Category label
CCC1NC(=O)c2cc(S(N)(=O)=O)c(Cl)cc2N1 (stereo not given) | F
O=C1CC(=O)N(C(=O)c2nn(-c3ccc(Cl)cc3)cc2O)N1 | F
O=C1C=C(Nc2cccc(Br)c2)c2ccccc2C1=O | F
COc1ccc(C2CC(c3cc(OC)c(OC)c(OC)c3)=NN2)cc1 (stereo not given) | F
COc1ccc(-c2cc(-c3ccc(Cl)cc3)nc(SCCCC(=O)NO)n2)cc1OC | T
COc1ccccc1-n1c(-c2csc(NC(C)=O)n2)n[nH]c1=S | F
CC[C@H]1OC(=O)[C@H](C)[C@@H](O[C@H]2C[C@@](C)(OC)[C@@H](O)[C@H](C)O2)[C@H](C)[C@@H](O[C@@H]2O[C@H](C)C[C@H](N(C)C)[C@H]2O)[C@](C)(OC)C/C(C)=C2/O[C@@]1(C)C=C2C | T
COc1ccc(/C=C2/SC(=S)NC2=O)c(OC)c1OC | F

Ask: Hi, do you know how COc1ccc(/C=C2\CCCC3=C2N=C2SC(C)=CN2C3c2ccc(OC)cc2)cc1 (stereo not given) came out in this test?
Result: F

Ask: How was O=C(CCn1cnc2c(cc(-c3ccccc3)n2-c2ccccc2)c1=O)Nc1ccc(F)cc1 classified in this test?
Result: F

Ask: Which outcome was entered for the compound CNS(=O)(=O)Oc1ccc(-c2ccc3occc3c2)cc1 in this test?
Result: F

Ask: // return assay outcome for O=c1cn[nH]c2ccc(Br)cc12
Result: F

Ask: Each compound tested received a call. Report the one for COc1cc(C)ccc1Oc1nc(Nc2ccc(N3CCOCC3)cc2)ncc1NC(=O)Nc1cc(C(F)(F)F)cc(C(F)(F)F)c1 .
Result: F

Ask: Check the results log: what was the call for CC1=NN(C(=O)c2nn(-c3ccc(Cl)cc3)cc2O)C(=O)C1 ?
Result: F

Ask: Each compound tested received a call. Report the one for CSc1nc2c(c(=O)n1C)CN(Cc1ccccc1)C(=O)CN2 .
Result: F

Ask: Look up the recorded call for CN(C)CCOc1cccc(-c2nc3sccn3c2-c2ccnc(S(C)(=O)=O)n2)c1 in this test.
Result: F

Ask: Recorded test outcome, item CCC(CC)n1c(C)cc(=O)n1C(CC)CC
Result: F

Ask: // return assay outcome for O=C(CCc1nnc2sc(-c3cc(O)c(O)c(O)c3)nn12)c1nc2ccccc2[nH]1
Result: F

Ask: // return assay outcome for CC1OC2CC(=O)OC2C2=C1C(=O)c1c(O)c3c(c(O)c1C2=O)C1CC(O)C3(O)C(C)O1 (stereo not given)
Result: T

Ask: Assay result, entry CSc1nc(S(C)(=O)=O)nc2[nH]c(=O)[nH]c12 — outcome?
Result: F

====

- Tested on: NCI/ADR-RES ovarian
- Method: NCI-60 one-dose screen, 48 h
- Condition label: 10 µM
The panel holds about 83,000 compounds, 20% with a hit somewhere; the sample as a whole holds those more often. The source made the active and inactive calls. The calls were made as follows: active = growth percent below 10; inactive = the rest.
# output must be one of Y = active, N = inactive

Study these solved cases before continuing.
Compound | Category label
CSc1nc2c(c(=O)n1C)CN(Cc1ccccc1)C(=O)CN2 | N
COc1cc2ncnc(NC3CCC(O)CC3)c2cc1OC (stereo not given) | N
Cc1ccc(/C=C2/C(=O)N(C)c3ccc(S(=O)(=O)Nc4ccc(C(C)(C)C)cc4)cc32)s1 | N

Ask: // outcome(item) with item = CC(=O)/C(=C/c1ccc(Br)cc1)C(=O)c1ccccc1
Result: N

Ask: Entry OC(CNc1ccnc2cc(Cl)ccc12)CNC1CCCCC1 (stereo not given) : call = ?
Result: N

Ask: Hi, do you know how O=C(/C=C/C=C/c1c(C2CC2)nc2ccccc2c1-c1ccc(F)cc1)c1cccs1 came out in this test?
Result: N

Ask: For Cc1c2cnccc2c(C)c2c1c1cc(O)ccc1n2C(C)C , what call appears in the results of this test?
Result: Y

Ask: Test call for this compound, please: C=C1CCC2(C#N)[C@H]3[C@H](CC[C@@H]2C)[C@@H](C)C[C@@H](CC(C)(C)NC(=O)CN2CCC2=O)[C@H]13 (stereo not given in full)
Result: N

====

- Test system: COLO 205 colon
- Method: NCI-60 one-dose screen, 48 h (100 = growth as untreated, 0 = no growth, -100 = all killed)
- Condition label: 10 µM
About 83,000 compounds went through this panel and 20% of them were active in at least one assay; those are over-represented in the sample as a whole.
Recorded measurements of growth, one per entry
Reply with just the number (in %).

// below: answered compounds
Compound | Result units | growth
CCOC(=O)C1C(C(=O)OCC)C2C(=O)C3C(C(=O)OCC)C(C(=O)OCC)C3C(=O)C12 (stereo not given) | % | 120
N#Cc1c(-c2ccc(Cl)cc2)n(O)c2ccccc12 | % | 115
CCn1c(SCc2ccc(C)cc2)nnc1-c1nn(-c2ccc(Cl)cc2Cl)c(-c2ccc(Cl)cc2)c1C | % | -34.3

Ask: Find the recorded growth belonging to O=C1/C(=C/c2ccc3c(c2)OCO3)SC(=S)N1C1c2ccccc2Oc2ccccc21 and report it.
Result: 99.7

Ask: Endpoint output: growth of CC(C)N(CCOc1ccc(-c2nc3sccn3c2-c2ccnc(S(C)(=O)=O)n2)cc1)C(C)C . Value?
Result: 86.8

Ask: Any idea what its growth is? The compound is O=c1c(Br)ccc(Br)cc1Br
Result: -70.6

Ask: Given the compound O=C1CC(=O)N(C(=O)c2nn(-c3ccc(Cl)cc3)cc2O)N1 , what is its reported growth?
Result: -13.4

Ask: Quick one: growth for CCOS(=O)(=O)c1c(C(C)C)cc(C(C)C)cc1C(C)C ?
Result: 104

Ask: Suppose we examine the compound CC(C)(C)c1ccc(S(=O)(=O)N[C@H]2CC[C@H]3[C@@H]4CCc5cc(O)c([N+](=O)[O-])cc5[C@H]4CC[C@]23C)cc1 ; what growth value has been reported?
Result: 96.4

Ask: May I ask what growth has been recorded for NC(N)=N/N=C(\N=Nc1ccccc1)c1ccc(Cl)cc1 ?
Result: 48.1
